System: MILI (PIWIL2) piRISC loaded with L1MC piRNA (26 nt);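 further: 1 nM active piRISC with 0.1 nM target library at 33 °C single turnover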
Assay Name: pre-steady-state target cleavage rate (min^-1); guide: L1MC piRNA 5'p-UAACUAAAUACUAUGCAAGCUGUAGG; MIWI and MILI are mouse PIWI proteins and EfPiwi is from a freshwater sponge; tags in brackets are library labels; higher = faster piRNA-guided slicing of the target
Experimental Context: auxiliary factor: 500 nM mouse GTSF1

| Biosequence | pre-steady-state target cleavage rate |
| --- | --- |
| UCCUGGAUGUCCUUGCUUAGUAUAUAGUUA | 0.0347 |
| UCCUCCUACAGCUUGCAUAGAUAUUAGUAA | 0.015 |
| UCCUCCUACACCUUGCAUAGUAUUUAGUUA | 0.237 |
| UCCUCCUACAGCUUGCAUAGUAUAAUGUUA | 0.158 |
| UCCUGGAUCAGCUUGCAAUCUAUUUAGUUA | 0.0116 |
| UCCUGGAUGUGCUUGCAUAGUAUUUAGUUG [g2:g20:cont:t1G] | 0.179 |
| UCCUCCCACAGCUUGCAUAGUAUUUAGUUA | 0.296 |
| UCCUGGAUGAGCUUGCAUAGUAUGUAGUUA | 0.162 |
| UCCUGCUACUGCUUGCAAAGUAUUUAGUUA | 0.0928 |
| UCCUCCUACAGCUUCCAUUGUAUUUAGUUA | 0.0834 |
| UCCUCCUACAGCUUGCAUAGUAUUUUCAAA | 0.232 |
| UCCUGCUACACGAUGCAUAGUAUUUACAAA | 0.0504 |
| UCCUGGAACAGCUUGCAUACUAAUUAGUUA | 0.0355 |
